Recorded DC50, one value per entry.
# study.system: N-terminal HiBiT tagged BCL6 (Homo sapiens)
# Construct: expressed in transfected cells; host or cells: HT1080 (ATCC CCL-121), stably transduced with lentivirus pLV-UBC-N-HiBiT-BCL6-PGK-puro
# test.protocol: HiBiT based degradation assay
# Type: cell-based
# assay.conditions: HT1080 cells expressing N-terminal HiBiT tagged BCL6; 5 hours of incubation; four-parameter logistic model; read-out: EC50 (5 hr)
# Method: Human BCL6 protein coding open reading frame fused with N-terminal HiBiT coding sequence was synthesized from Integrated DNA Technologies (IDT). […] HT1080 cells expressing N-terminal HiBiT tagged BCL6 were dispensed into a 384-well plate pre-spotted with compounds at varying concentrations. […] After incubation, luminescence was read on a PHERAstar FSX Plate Reader (BMG). […]

Some molecules with recorded DC50:
INSERT INTO results (molecule, study_system, observed) VALUES
  ('CNC(=O)COc1cc2cc(Nc3nc(N4CCN(CC5CCN(c6cccc7c(C8CCC(=O)NC8=O)nn(C)c67)CC5)CC4)ncc3F)cnc2n(C)c1=O (stereo not drawn) [Compound 135]', 'N-terminal HiBiT tagged BCL6 (Homo sapiens)', '< 10 nM'),
  ('CNC(=O)COc1cc2cc(Nc3nc(N4CC5(CC[C@H](Nc6ccc7c(C8CCC(=O)NC8=O)nn(C)c7c6)[C@H](C)C5)C4)ncc3Cl)cnc2n(C(C)C)c1=O (relative stereo) [Compound 180b]', 'N-terminal HiBiT tagged BCL6 (Homo sapiens)', '< 10 nM');

Prompt line: Entry CNC(=O)COc1cc2cc(Nc3nc(N4CCC(Oc5ccc6c(C7CCC(=O)NC7=O)nn(C)c6c5)CC4)ncc3Cl)cnc2n(C(C)C)c1=O (stereo not drawn) [Compound 164] : reported DC50 = ?
Response line: < 10 nM
